Assay: Ratio of drug level in brain to plasma in CD1 mouse at 30 mg/kg administered via oral gavage by LC-MS/MS method
Type: ADME, organism-based
Conditions: brain and plasma, read-out: BPR
measured property: Kp
Enter the number alone.

Please look at this compound and report its Kp: COC(=O)Nc1nc2ccc(C(=O)c3ccccc3)cc2[nH]1
1

----------
Experiment: Plasma concentration in CD1 mouse at 30 mg/kg administered single dose via oral gavage measured at 60 mins by LC-MS/MS method
Assay type: ADME, organism-based
measured property: concentration at 1 h (nM)
Give just the number in nM; leave the unit off.

Please look at this molecule and report its concentration at 1 h: COC(=O)Nc1nc2ccc(C(=O)c3ccccc3)cc2[nH]1 [MEBENDAZOLE]
2860

----------
Experiment: Tmax in Beagle dog at […], po by LC-MS/MS method
Type: ADME, organism-based, Canis lupus familiaris
Settings: in vivo
measured property: Tmax (h)
Give just the number in h; leave the unit off.

Please look at this compound and report its Tmax: COC(=O)Nc1nc2ccc(C(=O)c3ccccc3)cc2[nH]1
2

----------
Assay: AUC (0 to t) in CD1 mouse at 1.5 mg/kg, iv by LC-MS/MS method
Type: ADME, organism-based
Details: in vivo
measured property: AUC(0-t) (µM·h)
Give just the number in µM·h; leave the unit off.

Please look at this molecule and report its AUC(0-t): COC(=O)Nc1nc2ccc(C(=O)c3ccccc3)cc2[nH]1
2.7

Numbers sourced from ChEMBL document CHEMBL4177759.
